System: L1210 leukemia ip in BDF1 mice, survival T/C
Assay: NCI In Vivo Anticancer Drug Screen. Data for tumor model L1210 Leukemia (intraperitoneal) in B6D2F1 (BDF1) mice
Conditions: endpoint: mean survival time; dose: 200.0 mg/kg/injection; schedule: Q04DX002 (ip); vehicle: saline; higher = longer survival
Inconclusive results and toxic doses are left out.

MOLECULE: CC(=O)CP(=O)(O)O
T/C: 94 % of control

MOLECULE: C/C(=N\O)C(C)(C)O
T/C: 108 % of control

MOLECULE: CC(F)C(Br)C(=O)O (stereo not drawn)
T/C: 90 % of control

MOLECULE: O=C(CC(=O)NO)NO
T/C: 100 % of control

MOLECULE: Cc1cn(C2CC(O)C(COP(=O)(N3CC3)N3CC3)O2)c(=O)[nH]c1=O (stereo not drawn)
T/C: 94 % of control

MOLECULE: CCC(C=NCCBr)(CCC(=O)OC)CCC(=O)OC
T/C: 102 % of control

MOLECULE: N=C1SCCS1
T/C: 101 % of control

MOLECULE: Cc1cc[n+]([O-])nc1N(C)N
T/C: 96 % of control

====

Parameter T/C: see the listing below.
Test system: L1210 leukemia ip in BDF1 mice, survival T/C
Experiment: NCI In Vivo Anticancer Drug Screen. Data for tumor model L1210 Leukemia (intraperitoneal) in B6D2F1 (BDF1) mice
Settings: endpoint: mean survival time; dose: 400.0 mg/kg/injection; schedule: Q01DX001 (ip); vehicle: carboxymethylcellulose (CMC); higher = longer survival
Inconclusive results and toxic doses are left out.
ENDPOINT: T/C

COMPOUND: OC(COC(c1ccccc1)(c1ccccc1)c1ccccc1)C(O)CC1SCCS1 (stereo not drawn)
RECORDED_MEASUREMENT: 100 % of control
--
COMPOUND: O=C1CSC(=S)N1c1ccccc1
RECORDED_MEASUREMENT: 93 % of control
--
COMPOUND: C/C=C(/C)c1ccccc1
RECORDED_MEASUREMENT: 95 % of control

====

Test system: L1210 leukemia ip in BDF1 mice, survival T/C
Experiment: NCI In Vivo Anticancer Drug Screen. Data for tumor model L1210 Leukemia (intraperitoneal) in B6D2F1 (BDF1) mice
Conditions: endpoint: mean survival time; dose: 400.0 mg/kg/injection; schedule: Q04DX003 (ip); vehicle: saline with Tween-80
Toxic doses and inconclusive results are not listed. Cut-off read from the data, not from the text of the source: active = T/C of 150% or more; inactive = T/C below 125%.
Outcomes: active, inactive

MOLECULE: NCCc1cnc(N=Nc2ccc(S(N)(=O)=O)cc2)[nH]1
SYSTEM: L1210 leukemia ip in BDF1 mice, survival T/C
ANSWER_LABEL: inactive
//
MOLECULE: O=C(O)/C=C/C(=O)Nc1ccc([N+](=O)[O-])cc1
SYSTEM: L1210 leukemia ip in BDF1 mice, survival T/C
ANSWER_LABEL: inactive
//
MOLECULE: COC(=O)Nc1nc2ccccc2[nH]1
SYSTEM: L1210 leukemia ip in BDF1 mice, survival T/C
ANSWER_LABEL: inactive
//
MOLECULE: COc1c(C)c(C)c(OC(C)=O)c(C)c1Br
SYSTEM: L1210 leukemia ip in BDF1 mice, survival T/C
ANSWER_LABEL: inactive
//
MOLECULE: CSc1ccc(NC(=O)Oc2ccc(C(=O)OCc3ccccc3)cc2)cc1
SYSTEM: L1210 leukemia ip in BDF1 mice, survival T/C
ANSWER_LABEL: inactive
//
MOLECULE: CC(=O)Oc1cccc(OC(=O)Nc2cccc(Cl)c2C)c1
SYSTEM: L1210 leukemia ip in BDF1 mice, survival T/C
ANSWER_LABEL: inactive
//
MOLECULE: CSCCCNC(=O)NS(=O)(=O)c1ccc(C)cc1
SYSTEM: L1210 leukemia ip in BDF1 mice, survival T/C
ANSWER_LABEL: inactive
//
MOLECULE: O/N=C(/CN1CCCCC1)c1ccccc1
SYSTEM: L1210 leukemia ip in BDF1 mice, survival T/C
ANSWER_LABEL: inactive
//
MOLECULE: CCOC(=O)CCC(NC(=O)c1ccc(N(C)S(=O)(=O)c2ccc(C)cc2)c2ccccc12)C(=O)OCC (configuration not stated)
SYSTEM: L1210 leukemia ip in BDF1 mice, survival T/C
ANSWER_LABEL: inactive
//
MOLECULE: COc1ccc(Sc2cccc3c2C(=O)c2c(Sc4ccc(OC)cc4)cccc2C3=O)cc1
SYSTEM: L1210 leukemia ip in BDF1 mice, survival T/C
ANSWER_LABEL: inactive
//
MOLECULE: COc1ccc(NC(=O)C2C3C=CC(C3)C2C(=O)Nc2ccc(OC)cc2)cc1 (configuration not stated)
SYSTEM: L1210 leukemia ip in BDF1 mice, survival T/C
ANSWER_LABEL: inactive
//
MOLECULE: CC(=O)Nc1c(Cl)cc2c(c1Cl)Cc1c-2cc(Cl)c(NC(C)=O)c1Cl
SYSTEM: L1210 leukemia ip in BDF1 mice, survival T/C
ANSWER_LABEL: inactive
//
MOLECULE: O=[N+]([O-])c1ccc(-c2nc3c(o2)CCC3)cc1
SYSTEM: L1210 leukemia ip in BDF1 mice, survival T/C
ANSWER_LABEL: inactive
//
MOLECULE: NC(=O)/C=C/C(N)=O
SYSTEM: L1210 leukemia ip in BDF1 mice, survival T/C
ANSWER_LABEL: inactive
//
MOLECULE: FC(F)(F)C(Cl)Br (configuration not stated)
SYSTEM: L1210 leukemia ip in BDF1 mice, survival T/C
ANSWER_LABEL: inactive
//
MOLECULE: COc1ccc(OC)c(C(C)(O)CC(=O)O)c1 (configuration not stated)
SYSTEM: L1210 leukemia ip in BDF1 mice, survival T/C
ANSWER_LABEL: inactive
//
MOLECULE: CCNC(=O)Oc1cccc(NC(=O)OC)c1
SYSTEM: L1210 leukemia ip in BDF1 mice, survival T/C
ANSWER_LABEL: inactive
//
MOLECULE: Clc1cc2c(c3c1CONC3)OCO2
SYSTEM: L1210 leukemia ip in BDF1 mice, survival T/C
ANSWER_LABEL: inactive
//
MOLECULE: c1ccc(N/N=C(\c2ccccc2)c2cccs2)cc1
SYSTEM: L1210 leukemia ip in BDF1 mice, survival T/C
ANSWER_LABEL: inactive
//
MOLECULE: Cc1ccccc1-c1nc2cc(Cl)ccc2c(=O)o1
SYSTEM: L1210 leukemia ip in BDF1 mice, survival T/C
ANSWER_LABEL: inactive
//
MOLECULE: CCCCCCCCCCCCCCCCCCNC(=S)Nc1ccccc1
SYSTEM: L1210 leukemia ip in BDF1 mice, survival T/C
ANSWER_LABEL: inactive
//
MOLECULE: Cc1c(Cl)cccc1NC(=O)Nc1ccc(S(N)(=O)=O)cc1
SYSTEM: L1210 leukemia ip in BDF1 mice, survival T/C
ANSWER_LABEL: inactive
//
MOLECULE: Cc1ccc(S(=O)(=O)NC(=O)NCCCS(C)=O)cc1 (configuration not stated)
SYSTEM: L1210 leukemia ip in BDF1 mice, survival T/C
ANSWER_LABEL: inactive
//
MOLECULE: O=C(CCBr)NCNC(=O)CCBr
SYSTEM: L1210 leukemia ip in BDF1 mice, survival T/C
ANSWER_LABEL: active
//
MOLECULE: O=c1[nH]c(=S)n2ncnc2[nH]1
SYSTEM: L1210 leukemia ip in BDF1 mice, survival T/C
ANSWER_LABEL: inactive
//
MOLECULE: CC(C)CNC(=O)Nc1ccccc1C(F)(F)F
SYSTEM: L1210 leukemia ip in BDF1 mice, survival T/C
ANSWER_LABEL: inactive
//
MOLECULE: CC(C)C(NC(=O)CCNC(=O)OCc1ccccc1)C(=O)O (configuration not stated)
SYSTEM: L1210 leukemia ip in BDF1 mice, survival T/C
ANSWER_LABEL: inactive
//
MOLECULE: CC1CC(C)(C)N=C(CCC2CCCC2=O)O1 (configuration not stated)
SYSTEM: L1210 leukemia ip in BDF1 mice, survival T/C
ANSWER_LABEL: inactive
//
MOLECULE: CC(=O)OCCN1c2ccccc2Sc2cnccc21
SYSTEM: L1210 leukemia ip in BDF1 mice, survival T/C
ANSWER_LABEL: inactive
//
MOLECULE: C=NNC(=O)c1ccncc1
SYSTEM: L1210 leukemia ip in BDF1 mice, survival T/C
ANSWER_LABEL: inactive
//
MOLECULE: Nc1cccc(CCCCOc2ccccc2)c1
SYSTEM: L1210 leukemia ip in BDF1 mice, survival T/C
ANSWER_LABEL: inactive
//
MOLECULE: c1nc(SCSc2ncnc3nc[nH]c23)c2[nH]cnc2n1
SYSTEM: L1210 leukemia ip in BDF1 mice, survival T/C
ANSWER_LABEL: inactive
//
MOLECULE: O=C(O)c1ccccc1C(c1ccccc1)c1ccccc1
SYSTEM: L1210 leukemia ip in BDF1 mice, survival T/C
ANSWER_LABEL: inactive
//
MOLECULE: CCOC(=O)c1ccc2c(c1)nc1c3cccc4cccc(c(=O)n21)c43
SYSTEM: L1210 leukemia ip in BDF1 mice, survival T/C
ANSWER_LABEL: inactive
//
MOLECULE: Nc1nnnn1-c1cccc(Cl)c1
SYSTEM: L1210 leukemia ip in BDF1 mice, survival T/C
ANSWER_LABEL: inactive
//
MOLECULE: Nc1ccc(-n2cnc3c(=O)[nH]c(N)nc32)cc1
SYSTEM: L1210 leukemia ip in BDF1 mice, survival T/C
ANSWER_LABEL: inactive
//
MOLECULE: O=C(Cn1ccc(=O)[nH]c1=O)c1ccc(Cl)s1
SYSTEM: L1210 leukemia ip in BDF1 mice, survival T/C
ANSWER_LABEL: inactive
//
MOLECULE: CCCN(CCC)/N=N/c1nc[nH]c1C(N)=O
SYSTEM: L1210 leukemia ip in BDF1 mice, survival T/C
ANSWER_LABEL: inactive
//
MOLECULE: O=C(O)CSCc1nc2ccccc2[nH]1
SYSTEM: L1210 leukemia ip in BDF1 mice, survival T/C
ANSWER_LABEL: inactive
//
MOLECULE: CCNC(C)(C)C(SS(=O)(=O)O)c1ccc(Cl)s1 (configuration not stated)
SYSTEM: L1210 leukemia ip in BDF1 mice, survival T/C
ANSWER_LABEL: inactive
//
MOLECULE: c1ccc(B2Nc3ccccc3-c3ccccc32)cc1
SYSTEM: L1210 leukemia ip in BDF1 mice, survival T/C
ANSWER_LABEL: inactive
//
MOLECULE: CC(=O)Oc1cccc(C#N)c1
SYSTEM: L1210 leukemia ip in BDF1 mice, survival T/C
ANSWER_LABEL: inactive
